Would you mind telling me the reported growth of each entry?
test system: HS 578T breast; test: NCI-60 one-dose screen, 48 h (100 = growth as untreated, 0 = no growth, -100 = all killed); details: 10 µM
Compounds without any hit were thinned out: in the full panel of roughly 83,000, 20% have a hit.
# unit: % | format: bare number

What growth appears in the records for this compound with HS 578T breast? Cc1ccc(S(=O)(=O)Oc2ccc3c4c(c(=O)oc3c2)CCCCC4)cc1
79.7

What growth appears in the records for this compound with HS 578T breast? O=C(CNC(=O)OCc1ccccc1)NCC(=O)Oc1ccc([N+](=O)[O-])cc1
137

What growth appears in the records for this compound with HS 578T breast? CCOC(=O)C(CSC(c1ccccc1)(c1ccccc1)c1ccccc1)NC(=O)C(CSC(c1ccccc1)(c1ccccc1)c1ccccc1)NC(c1ccccc1)(c1ccccc1)c1ccccc1 (centres undefined)
99.5

What growth appears in the records for this compound with HS 578T breast? NC1(C(=O)O)CSSC1
53.6

What growth appears in the records for this compound with HS 578T breast? CC(C)(C)NC/C(=C\c1ccccc1)C(=O)c1ccccc1
38.2

What growth appears in the records for this compound with HS 578T breast? O=C(Nc1ccncc1)C(=O)c1cn(S(=O)(=O)c2ccc(F)cc2)c2ccccc12
50.4

What growth appears in the records for this compound with HS 578T breast? COc1cc(-c2cc(C(=O)N3CCN(C(=O)c4ccccc4NCc4cccs4)CC3)nc3cc(-c4ccccc4)nn23)cc(OC)c1OC
85.7

What growth appears in the records for this compound with HS 578T breast? COc1ccc2c(c1)sc1nc(-c3ccccc3)c(-c3ccc(O)c(OC)c3)n12
84.6

What growth appears in the records for this compound with HS 578T breast? N#CSCC1CC(O)(c2ccccc2)CC(c2ccc(Cl)cc2)O1 (centres undefined)
21

====

tested on: SK-OV-3 ovarian; test: NCI-60 one-dose screen, 48 h (100 = growth as untreated, 0 = no growth, -100 = all killed); conditions: 10 µM
This is part of a sample that, as a whole, favours compounds with a hit. Of some 83,000 tested, about 20% had one in any assay.
Would you mind telling me the reported growth of each entry?
# unit: % | format: bare number

Item COc1ccc(-c2nn(-c3cccc(NC(=O)c4cccc(C(F)(F)F)c4)c3)cc2-c2ccncc2)cc1Cl has what recorded growth?
37.8

Item Nc1c(C(=O)Nc2ccccc2)sc2nc3c(cc12)CCCC3 has what recorded growth?
24.7

Item CC1(C)Cc2c(sc3ncn4nc(-c5ccc(O)cc5)nc4c23)CO1 has what recorded growth?
79.8

Item O=C(Nc1cccc(-n2cc(-c3ccncc3)c(-c3ccc(O)c(Cl)c3)n2)c1)c1cccc(C(F)(F)F)c1 has what recorded growth?
71.2

Item CC1(O)CCC2CC3OC3(C)CCC3OC3(C)CCC1C2(C)C (configuration not stated) has what recorded growth?
104

Item COc1ccc(NC(=O)Cc2nc3nc4sc(C)c(C)c4c(=O)n3[nH]2)cc1 has what recorded growth?
104

Item CCCC(F)C(=O)O (configuration not stated) has what recorded growth?
98.3

Item CCN(CCCCCCN1CC(=O)N(CCCCCCN(CC)Cc2ccccc2OC)CC1=O)Cc1ccccc1OC has what recorded growth?
102

Item O=C(Nc1cccc(Br)c1)c1cc(=O)[nH]c2ccccc12 has what recorded growth?
97.7

Item Cc1ccc(S(=O)(=O)OCCN(CCOS(=O)(=O)c2ccc(C)cc2)c2c[nH]c(=O)[nH]c2=O)cc1 has what recorded growth?
100

Item N#CCCN1C/C(=C/c2ccc(Cl)cc2)C(=O)/C(=C/c2ccc(Cl)cc2)C1 has what recorded growth?
-10.2

Item N=C(N)c1ccc(-c2ccc(-c3ccccc3)o2)nc1 has what recorded growth?
100

Item O=C(c1cccs1)c1ccccc1Cc1ccccc1 has what recorded growth?
101

Item FC(F)(F)c1ccc(-c2cnc(Cl)nc2N2CCC3(CC2)OCCO3)cc1 has what recorded growth?
88.9

Item CC(C)=CCc1cc(O)cc2c1OC(C=C(C)C)C1=C2C(=O)C2=C(NCCS2(=O)=O)C1=O (configuration not stated) has what recorded growth?
4.28

Item COc1ccc(-c2nsc3c2NC(=O)CC3c2ccc(F)cc2)cc1 (configuration not stated) has what recorded growth?
35.2

Item Clc1ccc(Nc2ccnc(NCCNc3ccnc4cc(Cl)ccc34)n2)cc1 has what recorded growth?
60

Item O=C1Nc2ccccc2C1=NC1CCCCC1 has what recorded growth?
95.4

Item CCCCCC(=O)c1ccc(OCCCN2CCN(C(=O)OCC)CC2)cc1 has what recorded growth?
104

Item COC(=O)c1c(-c2ccccc2)csc1NC(=O)c1c(-c2ccccc2)noc1C has what recorded growth?
58.6

Item Cc1ccc(NC(=O)NC2CCCCC2)cc1 has what recorded growth?
95.8

Item O=C(Nc1ccncc1)C(=O)c1cn(S(=O)(=O)c2cccc3ccccc23)c2ccccc12 has what recorded growth?
87.9
